The entries below are paired with their reported Ki.
Biological target: Rho kinase 2 (ROCK2) (Homo sapiens, UniProt O75116)
Sequence (O75116 whole entry): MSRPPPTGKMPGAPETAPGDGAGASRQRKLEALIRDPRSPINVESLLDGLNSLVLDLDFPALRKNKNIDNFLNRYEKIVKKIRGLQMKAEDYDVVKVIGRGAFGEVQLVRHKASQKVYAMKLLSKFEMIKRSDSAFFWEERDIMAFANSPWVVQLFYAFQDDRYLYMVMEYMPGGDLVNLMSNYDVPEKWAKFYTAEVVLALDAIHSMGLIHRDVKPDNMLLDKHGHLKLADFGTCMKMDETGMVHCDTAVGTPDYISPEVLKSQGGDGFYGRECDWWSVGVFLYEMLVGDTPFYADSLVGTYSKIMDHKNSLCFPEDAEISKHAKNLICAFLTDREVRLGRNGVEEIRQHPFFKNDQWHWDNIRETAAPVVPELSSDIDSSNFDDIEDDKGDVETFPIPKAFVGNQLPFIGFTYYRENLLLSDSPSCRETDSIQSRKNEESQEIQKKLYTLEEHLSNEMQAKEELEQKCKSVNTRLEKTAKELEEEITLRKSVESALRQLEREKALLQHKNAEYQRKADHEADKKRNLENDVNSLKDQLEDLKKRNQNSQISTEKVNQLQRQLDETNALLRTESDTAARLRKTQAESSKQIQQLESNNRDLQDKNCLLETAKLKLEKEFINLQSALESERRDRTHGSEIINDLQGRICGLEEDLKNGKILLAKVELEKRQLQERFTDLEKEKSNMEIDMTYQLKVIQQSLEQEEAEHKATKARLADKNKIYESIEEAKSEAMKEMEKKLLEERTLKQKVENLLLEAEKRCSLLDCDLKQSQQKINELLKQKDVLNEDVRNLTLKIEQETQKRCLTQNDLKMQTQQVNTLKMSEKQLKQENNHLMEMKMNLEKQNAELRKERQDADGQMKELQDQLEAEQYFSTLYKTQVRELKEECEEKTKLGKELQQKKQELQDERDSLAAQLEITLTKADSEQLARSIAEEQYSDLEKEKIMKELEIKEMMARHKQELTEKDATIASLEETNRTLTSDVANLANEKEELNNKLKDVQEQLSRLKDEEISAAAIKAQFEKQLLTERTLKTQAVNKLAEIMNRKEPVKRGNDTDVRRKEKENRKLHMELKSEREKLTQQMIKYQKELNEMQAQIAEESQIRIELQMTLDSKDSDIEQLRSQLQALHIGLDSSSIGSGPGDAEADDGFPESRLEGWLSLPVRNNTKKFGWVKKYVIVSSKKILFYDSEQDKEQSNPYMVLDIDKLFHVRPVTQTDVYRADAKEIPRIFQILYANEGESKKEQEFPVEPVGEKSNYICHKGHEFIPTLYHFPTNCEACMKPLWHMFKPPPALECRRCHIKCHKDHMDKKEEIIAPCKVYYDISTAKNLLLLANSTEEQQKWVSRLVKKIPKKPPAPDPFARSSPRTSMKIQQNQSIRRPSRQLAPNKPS

Examples from the recorded data:
[
  {
    "molecule": "Cc1c[nH]c2nccc(Oc3ccc([C@H]4CCN[C@@H]4C(=O)NCCc4ccccc4)cc3)c12 (racemic)",
    "target": "Rho kinase 2 (ROCK2) (Homo sapiens, UniProt O75116)",
    "Ki": "< 3 nM"
  },
  {
    "molecule": "COCCCNC(=O)C(CN)Cc1ccc(Oc2ccnc3[nH]ccc23)cc1 (stereo not shown)",
    "target": "Rho kinase 2 (ROCK2) (Homo sapiens, UniProt O75116)",
    "Ki": "3 to 30 nM"
  },
  {
    "molecule": "Cc1cc2c(Oc3ccc(CC(CN)C(=O)N4CCN(Cc5ccccc5)CC4)cc3)ccnc2[nH]1 (stereo not shown)",
    "target": "Rho kinase 2 (ROCK2) (Homo sapiens, UniProt O75116)",
    "Ki": "> 30 nM"
  }
]

// switching to the query molecule
Q: System Rho kinase 2 (ROCK2) (Homo sapiens, UniProt O75116). Read-out Ki. Item Cc1c[nH]c2nccc(Oc3ccc(CC(CN(C)C)C(=O)N4CCN(Cc5ccccc5)CC4)cc3)c12 (stereo not shown) . Report value.
Ans: < 3 nM

Value source: patent US11147812B2
